# Assay Text: folding stability dG unfold (combined trypsin and chymotrypsin); higher = more stable
Outcome Measure: folding stability dG unfold

Past entries and their recorded results:
SAMTIVLTLDEIAELLGLEKGESVEELRERIRELIRRLEEEGYRVTSITIEEVDGELVITVEIEPPPPESAG [r14_158_TrROS_Hall]	4.89 kcal/mol
SAGGSAGGSAGGNIKVDDVHHNPNNYRQVKIDLPGGKPIKIWMSMDDPNNVKEIAKEIFSAGGSAGGSAGGS [r10_472_TrROS]	-0.22 kcal/mol
SAGGSAGGSAGGIRIEFPGMKFEIDEFDPPNGVITLRFPENGQELQIKFDSDGEITKITWSAGGSAGGSAGG [r7_553_TrROS]	2.25 kcal/mol
SAGGSKLKNLKSKPFPITFENGGKVTLNVVNIPKSSKPVVNITVIEPNSGKKKTFTVPLEEAKNLLSAGGSA [r2_366_TrMRF]	0.869 kcal/mol
SAGGSAGGSAGGKKVKVIKVSVTYDPKTKKLTIKVEKTGKTYTIPLKEIELVNGYLKIKSAGGSAGGSAGGS [r10_942_TrROS_Hall]	2.21 kcal/mol
SAGGSAGGSMSTSLSLSSAPGVSVVTTAHPDSTVVTEQPPDGSRVVRVLDPAGELVAEEAVAPSAGGSAGGS [r12_471_JUSTAS]	-0.33 kcal/mol

Input line: Tell me measured folding stability dG unfold for SAGGSAGGSAPMEIWVLIDSPEKAKDLAKEIAHELQQSGIKIKVEVEQPPNGYYLVKIRFDSAGGSAGGSAG [r3_211_TrROS] please.
Output line: 1.91 kcal/mol

###

# Assay Text: folding stability dG unfold from trypsin proteolysis; higher = more stable
Outcome Measure: folding stability dG unfold (kcal/mol)
State the answer as a number, implicitly in kcal/mol.

SAGGKKPKKLTPEQIEELAKALAPEGAEVKVEVVEVTEKTVVVKITVKDKETGEEKTIEITLPLPEESAGGS [r16_486_TrROS_Hall]	2.45
SAPMKIVKKTDNTLYIYDKKTKKIVKITINDGTITVEEITYDKKTKEKKVETKTIKLSEEQLKKLKKLLSAG [r14_245_TrROS_Hall]	1.54
SAGGSAGGSTPELLKKLPPGAKVEVETRLVTNEDGSVYKVVKIKIVDKKTNKTLELELVVKLPSAGGSAGGS [r12_892_TrROS_Hall]	2.13
SAGGSAGGSAGGSMIVVPVTSNEVVDNLGGPVTVPAGTVIIIERTENSVKVEVLPPEKLSAGGSAGGSAGGS [r10_353_JUSTAS]	0.917

Input line: Assign folding stability dG unfold to the following record: SMYRIRVKIKIKNPKTGKVIELPELEGMSLEEVLEIAKELKEKFPGAEVEVEIVEVEPLPPLTEEQLKKLSA [r9_421_TrROS_Hall]
Output line: 1.91

Input line: For the sequence SAGGSAGGMKIEIFQNDDGIYVRIKLKPPNGPPRTMVFPFTANQIKDALKQFPNYKIEDIEVYRSAGGSAGG [r6_879_TrROS] , give its measured folding stability dG unfold value.
Output line: 1.47

Input line: Please give the documented folding stability dG unfold of SAGGSAGGSAGGKTYTADEIKKIKKINGKWYVEIDGKTYEIPAKDIKIKKGDKIKIYPVSAGGSAGGSAGGS [r10_665_TrROS_Hall]
Output line: 1.45

Input line: Specify measured folding stability dG unfold for SAGGGTTITLSFADGTTKTLTLPGLTEVVEEPGRVVVRADVPERRVVVTFEPATGTITVEEFAPEEPVSAGG [r13_392_JUSTAS] .
Output line: 0.818

The reported numbers originate from the supplement of paper PMC12764529.
